# measured on: T1, c-erbB-2 ECD with a Ser-Gly-His6 C-terminal fusion (UniProt P04626 23-652)
# T1 construct: extracellular domain; Expressed from CHO cells, IMAC purified; coupled to a CM5 chip, coated on plates, or biotinylated with NHS-LC-biotin; also called c-erbB-2 extracellular domain; biotinylated c-erbB-2 ECD
# assay protocol: SPR BIAcore
Provide the reported koff of each item.

Exam item: # query: koff of entry C6ML3-23 (scFv) scFv: QVQLLQSGAELKKPGESLKISCKGSGYSFTSYWIAWVRQMPGKGLEYMGLIYPGDSDTKYSPSFQGQVTISVDKSVSTAYLQWSSLKPSDSAVYFCARHDVGYCSSSNCAKWPEYFQHWGQGTLVTVSSGGGGSGGGGSGGGGSQSVLTQPPSVSAAPGQKVTISCSGSSSNIGNNYVSWYQQLPGTAPKLLIYGHTNRPAGVPDRFSGSKSGTSASLAISGFRSEDEADYYCASWDHSLWGWVFGGGTKLTVLG
Marked response: 0.0017 s⁻¹

Exam item: # query: koff of entry C6ML3-12 (scFv, also called CML-3-12) scFv: QVQLLQSGAELKKPGESLKISCKGSGYSFTSYWIAWVRQMPGKGLEYMGLIYPGDSDTKYSPSFQGQVTISVDKSVSTAYLQWSSLKPSDSAVYFCARHDVGYCSSSNCAKWPEYFQHWGQGTLVTVSSGGGGSGGGGSGGGGSQSVLTQPPSVSAAPGQKVTISCSGSSSNIGNNYVSWYQQLPGTAPKLLIYGHTNRPAGVPDRFSGSKSGTSASLAISGFRSEDEADYYCAAWDYSRSGWVFGGGTKLTVLG
Marked response: 0.00072 s⁻¹

Exam item: # query: koff of entry C6ML3-1 (scFv) scFv: QVQLLQSGAELKKPGESLKISCKGSGYSFTSYWIAWVRQMPGKGLEYMGLIYPGDSDTKYSPSFQGQVTISVDKSVSTAYLQWSSLKPSDSAVYFCARHDVGYCSSSNCAKWPEYFQHWGQGTLVTVSSGGGGSGGGGSGGGGSQSVLTQPPSVSAAPGQKVTISCSGSSSNIGNNYVSWYQQLPGTAPKLLIYGHTNRPAGVPDRFSGSKSGTSASLAISGFRSEDEADYYCAAWDYSLWGWVFGGGTKLTVLG
Marked response: 0.002 s⁻¹

Exam item: # query: koff of entry C6ML3-7 (scFv) scFv: QVQLLQSGAELKKPGESLKISCKGSGYSFTSYWIAWVRQMPGKGLEYMGLIYPGDSDTKYSPSFQGQVTISVDKSVSTAYLQWSSLKPSDSAVYFCARHDVGYCSSSNCAKWPEYFQHWGQGTLVTVSSGGGGSGGGGSGGGGSQSVLTQPPSVSAAPGQKVTISCSGSSSNIGNNYVSWYQQLPGTAPKLLIYGHTNRPAGVPDRFSGSKSGTSASLAISGFRSEDEADYYCAAWDYAVSGWVFGGGTKLTVLG
Marked response: 0.0017 s⁻¹
